// reported pKi for each item listed
# Assay target: Translocator protein (Rattus norvegicus, UniProt P16257)
# Sequence (P16257 whole entry, looked up): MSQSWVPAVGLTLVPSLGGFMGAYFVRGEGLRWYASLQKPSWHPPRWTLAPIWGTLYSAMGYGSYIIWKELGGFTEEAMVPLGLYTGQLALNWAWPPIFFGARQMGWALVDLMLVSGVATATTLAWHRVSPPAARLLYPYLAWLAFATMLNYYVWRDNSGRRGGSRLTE
pKi: −log10 of the molar value.
Value kind: pKi

1) CCCN(CCC)C(=O)C(=O)c1c(-c2ccc([N+](=O)[O-])cc2)n(C)c2ccccc12 :: 8.24
2) CCN(Cc1ccccc1)C(=O)C(=O)c1c(-c2ccccc2)n(C)c2ccccc12 :: 8.53
3) CN(Cc1ccccc1)C(=O)C(=O)c1c(-c2ccccc2)n(C)c2ccccc12 :: 7.68
4) CCCN(CCC)C(=O)C(=O)c1c(-c2ccc(F)cc2)n(C)c2ccccc12 :: 7.70
5) CCCCCN(C)C(=O)C(=O)c1c(-c2ccccc2)n(C)c2ccccc12 :: 7.42

====

# Test system: GABA-A receptor, central benzodiazepine site (Rattus norvegicus)
# Test details: Displacement of [3H]flumazenil from central benzodiazepine site of GABA-A receptor in rat cerebral cortex membrane after 90 mins
Calls of active or inactive are those of the source. The calls are words filed in the database; no cut-off is given here.
Value kind: Activity

1. CCCN(CCC)C(=O)C(=O)c1c(-c2ccccc2)n(C)c2ccc(F)cc12 :: inactive
2. CCCCCCN(CCCCCC)C(=O)C(=O)c1c(-c2ccc(F)cc2)n(C)c2ccccc12 :: inactive
3. CCCCCCN(CCCCCC)C(=O)C(=O)c1c(-c2ccc(F)cc2)[nH]c2ccccc12 :: inactive
